Readings of microsomal CLint at 1 μM for the listed compounds
- testProtocol: Microsomal stability assay, mouse liver microsomes (MLM)
- Assay type: in vitro ADME
- measurementContext: 0.5 mg/mL protein, 1 μM substrate
Hi! Could you send only the number? It should be in µL/min/mg, unit omitted.

microsomal CLint at 1 μM reading for O=C1CCc2c(Oc3ccc4c(c3)CC(c3nc(-c5ccc(Cl)cc5)c[nH]3)CO4)ccnc2N1 (stereo not shown) : 29.1

---

- testProtocol: FeSSIF solubility assay
- Format: physicochemical
- measurementContext: fed state simulated intestinal fluid (FeSSIF), thermodynamic from solid, pH 5 acetate buffer, 37° C., read-out: FESSIF Sol
experimentalReadout: solubility thermodynamic at 24 h (µg/mL)
Hi! Could you send only the number? It should be in µg/mL, unit omitted.

- compound: "CCc1cc(-c2c[nH]c(C3COc4ccc(Oc5ccnc6c5CCC(=O)N6)cc4C3)n2)n(C2CC2)n1 (stereo not shown) [Compound 113]"
  solubility thermodynamic at 24 h (µg/mL): 140

solubility thermodynamic at 24 h reading for CCn1nc(C)cc1-c1c[nH]c(C2COc3ccc(Oc4ccnc5c4CCC(=O)N5)cc3C2)n1 (stereo not shown) [Compound 124] : 3

solubility thermodynamic at 24 h reading for Cc1ccc(-c2c[nH]c(C3COc4ccc(Oc5ccnc6c5CCC(=O)N6)cc4C3)n2)s1 (stereo not shown) [Compound 110] : 8.5

---

- testProtocol: FeSSIF solubility assay
- Type: physicochemical
- measurementContext: fed state simulated intestinal fluid (FeSSIF), thermodynamic from solid, pH 5 acetate buffer, 37° C., read-out: FESSIF Sol
experimentalReadout: solubility thermodynamic at 24 h (µg/mL)
Hi! Could you send only the number? It should be in µg/mL, unit omitted.

- molecule: "c1ccc(-c2c[nH]c(C3COc4ccc(Oc5ccnc(NC6CCC6)c5)cc4C3)n2)cc1 (stereo not drawn)"
  solubility thermodynamic at 24 h [µg/mL]: 135

solubility thermodynamic at 24 h reading for O=C(Nc1cc(Oc2ccc3c(c2)CC(c2nc(-c4ccccc4)c[nH]2)CO3)ccn1)C1CC1 (racemic) : 17.1

solubility thermodynamic at 24 h reading for O=C(CN1CCOCC1)Nc1cc(Oc2ccc3c(c2)CC(c2nc(-c4ccccc4)c[nH]2)CO3)ccn1 (stereo not drawn) : 200

solubility thermodynamic at 24 h reading for O=C1CCc2c(Oc3ccc4c(c3)CC(c3nc(-c5ccnc(C(F)F)c5)c[nH]3)CO4)ccnc2N1 (stereo not drawn) : 5.7

solubility thermodynamic at 24 h reading for O=C(Cn1ccnc1)Nc1cc(Oc2ccc3c(c2)CC(c2nc(-c4ccccc4)c[nH]2)CO3)ccn1 (stereo not drawn) : 318

solubility thermodynamic at 24 h reading for COc1csc(-c2c[nH]c(C3COc4ccc(Oc5ccnc6c5CCC(=O)N6)cc4C3)n2)c1 (stereo not drawn) : 124

---

- testProtocol: Solubility (Sol), medium not stated
- Assay type: physicochemical
- measurementContext: cells not marked (FESSIF)
Where a name gives a salt, the structure may show the parent alone.
Readings of Sol for the listed compounds

// known answers, use as guide
- compound: "O=C1CCc2c(Oc3ccc4c(c3)CN(c3nc(-c5ccccc5)n[nH]3)CC4)ccnc2N1 [Compound 44, hydrochloride]"
  Sol: "<1.2 mg/L"
- compound: "COc1ccc(-c2c[nH]c(C3COc4ccc(Oc5ccnc6c5CCC(=O)N6)cc4C3)n2)cc1 (stereo not drawn) [Compound 10]"
  Sol: "<1.2 mg/L"
- compound: "N#Cc1cccc(-c2c[nH]c(C3COc4ccc(Oc5ccnc6c5CCC(=O)N6)cc4C3)n2)c1 (stereo not drawn) [Compound 16]"
  Sol: "<1.2 mg/L"
- compound: "O=C1CCc2c(Oc3ccc4c(c3)CC(c3cc(-c5cccc(C(F)(F)F)c5)n[nH]3)CO4)ccnc2N1 (stereo not drawn) [Compound 42]"
  Sol: "<1.3 mg/L"
- compound: "Cc1cc(C(F)(F)F)cc2nc(C3COc4ccc(Oc5ccnc6c5CCC(=O)N6)cc4C3)[nH]c12 (stereo not drawn) [Compound 31]"
  Sol: "<1.2 mg/L"
- compound: "O=C1CCc2c(Oc3ccc4c(c3)CC(c3cc(-c5ccccc5C(F)(F)F)n[nH]3)CO4)ccnc2N1 (stereo not drawn) [Compound 35]"
  Sol: "<1.3 mg/L"
- compound: "O=C1CCc2c(Oc3ccc4c(c3)CN(C(=O)Nc3cccc(C(F)(F)F)c3)CC4)ccnc2N1 [Compound 50]"
  Sol: "<1.2 mg/L"
- compound: "O=C1CCc2c(Oc3ccc4c(c3)CN(C(=O)Nc3ccccc3C(F)(F)F)CC4)ccnc2N1 [Compound 49]"
  Sol: "<1.2 mg/L"
- compound: "O=C1CCc2c(Oc3ccc4c(c3)CN(C(=O)Nc3ccccc3)CC4)ccnc2N1 [Compound 46]"
  Sol: "<1 mg/L"
- compound: "O=C1CCc2c(Oc3ccc4c(c3)CC(c3nc5cc(C(F)(F)F)ccc5[nH]3)CO4)ccnc2N1 (stereo not drawn) [Compound 22]"
  Sol: "<1.2 mg/L"

Sol reading for Cc1ccc(-c2c[nH]c(C3COc4ccc(Oc5ccnc6c5CCC(=O)N6)cc4C3)n2)cc1 (stereo not drawn) [Compound 9] : <1.1 mg/L

Sol reading for O=C1CCc2c(Oc3ccc4c(c3)CC(c3nc(-c5ccc(Cl)cc5)c[nH]3)CO4)ccnc2N1 (stereo not drawn) [Compound 11] : <1.2 mg/L

Sol reading for CC(C)NCc1cc(-c2c[nH]c(C3COc4ccc(Oc5ccnc6c5CCC(=O)N6)cc4C3)n2)cc(C(F)(F)F)c1 (stereo not drawn) [Compound 6] : <1.4 mg/L

Sol reading for COc1cncc(-c2c[nH]c(C3COc4ccc(Oc5ccnc6c5CCC(=O)N6)cc4C3)n2)c1 (stereo not drawn) [Compound 17] : <1.2 mg/L

Sol reading for Cc1ccccc1-c1c[nH]c(C2COc3ccc(Oc4ccnc5c4CCC(=O)N5)cc3C2)n1 (stereo not drawn) [Compound 2] : <1.1 mg/L
